# TEST_DESCRIPTION: chemical genetic growth profiling, strain panel (AID 1159580);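 note: tested at 20 µM; growth read once vehicle control cultures reached saturation at 30 °C; 1 = growth at the plate median or of vehicle wells; lower values mean less growth of the strain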
# CONDITION_DESCRIPTION: S. cerevisiae deletion strains, growth OD, locus YMR125W, strain sto1
In all, about 5,500 compounds went through this assay and about 2,000 (36%) were called active. Another 18% or so got no clear call; they are omitted. Cut-off read from the data, not from the text of the source: active = normalized growth mostly below about 0.91 (no sharp cut-off); inconclusive = no clear call, values can overlap the other calls; inactive = mostly above about 0.92. The list shows a part of the results.
Choose one outcome from this list and give only that: Y for active, N for inactive

Example cases with answers are listed next.
- COMPOUND: "COc1cc2ccc(=O)oc2cc1O"
  LABEL_CLASS: "N"
- COMPOUND: "CCS(=O)(=O)CCn1c([N+](=O)[O-])cnc1C"
  LABEL_CLASS: "N"
- COMPOUND: "CC(C)=CCC/C(C)=C/COc1ccc2ccc(=O)oc2c1"
  LABEL_CLASS: "N"
- COMPOUND: "CC(C)=CCOc1cc2oc(=O)ccc2cc1O"
  LABEL_CLASS: "N"
- COMPOUND: "COc1cc2ccc(=O)oc2c(OC)c1OC"
  LABEL_CLASS: "N"
- COMPOUND: "C[N+]1(C)C2CC[C@H]1CC(OC(=O)C(O)c1ccccc1)C2 (some centres undefined)"
  LABEL_CLASS: "N"
- COMPOUND: "O=C(O)CCCN1C(=O)c2cccc3cccc(c23)C1=O"
  LABEL_CLASS: "N"
- COMPOUND: "CC(C)=CCOc1c2occc2cc2ccc(=O)oc12"
  LABEL_CLASS: "Y"

# next compound below
Q: Give the logged outcome of this assay for the following compound: O=C(O)c1cccc(O)c1O
Result: N

---

Reported normalized growth is given for each of the following molecules.
# TEST_DESCRIPTION: chemical genetic growth profiling, strain panel (AID 1159580)
# CONDITION_DESCRIPTION: S. cerevisiae deletion strains, growth OD, locus YDR162C, strain NBP2, stronger effect = lower value
Among all 5,500 compounds or so, about 2,000 (36%) were called active. Not shown: some 18% with an inconclusive outcome. This is one part of the list.

- QUERY_SMILES: "CCN(CC)CCNC(=O)COc1ccc(OC)cc1"
  PARAMETER: "normalized growth"
  RESULT: "1.01 (inactive)"
- QUERY_SMILES: "COc1c2c(cc3occ(-c4ccc5c(c4)OCO5)c(=O)c13)OC(C)(C)C=C2"
  PARAMETER: "normalized growth"
  RESULT: "0.993 (inactive)"
- QUERY_SMILES: "CC1(C)C=Cc2c(cc3occ(-c4ccc5c(c4)OCO5)c(=O)c3c2O)O1"
  PARAMETER: "normalized growth"
  RESULT: "0.976 (inactive)"
- QUERY_SMILES: "O=c1[nH]c2ccccc2n1C1CCN(CCCC(c2ccc(F)cc2)c2ccc(F)cc2)CC1"
  PARAMETER: "normalized growth"
  RESULT: "0.975 (inactive)"
- QUERY_SMILES: "COc1cc2c(cc1-c1coc3c4c(c(OC)cc3c1=O)OC(C)(C)C=C4)OCO2"
  PARAMETER: "normalized growth"
  RESULT: "0.884 (inactive)"

Q: Any idea what normalized growth was measured for O=C(CCCN1CC=C(n2c(=O)[nH]c3ccccc32)CC1)c1ccc(F)cc1 ?
Result: 0.978 (inactive)

Q: Any idea what normalized growth was measured for CNC(=O)CSP(=S)(OC)OC ?
Result: 1.01 (inactive)

Q: Any idea what normalized growth was measured for CC(C)=CCc1c(O)cc2occ(-c3ccc4c(c3)OCO4)c(=O)c2c1O ?
Result: 1.01 (inactive)

Q: Any idea what normalized growth was measured for Fc1ccc(C(c2ccc(F)cc2)N2CCN(C/C=C/c3ccccc3)CC2)cc1 ?
Result: 0.966 (inactive)

Q: Any idea what normalized growth was measured for CC1(C)S[C@@H]2[C@H](NC(=O)COc3ccccc3)C(=O)N2[C@H]1C(=O)O ?
Result: 1.01 (inactive)

---

Reported normalized growth is given for each of the following compounds.
# TEST_DESCRIPTION: chemical genetic growth profiling, strain panel (AID 1159580)
# CONDITION_DESCRIPTION: S. cerevisiae deletion strains, growth OD, locus YJL187C, strain SWE1, stronger effect = lower value
Out of some 5,500 compounds screened, about 2,000 (36%) were called active. Another 18% or so got no clear call; they are omitted. This is one part of the list.
Respond using a number only.

- QUERY_SMILES: "COc1cc(O)c(C)c(O)c1"
  NUMERIC_RESULT: 1.01
- QUERY_SMILES: "COc1c(O)cc(O)cc1O"
  NUMERIC_RESULT: 1
- QUERY_SMILES: "COc1cc(O)c(C(C)=O)c(OC)c1"
  NUMERIC_RESULT: 1
- QUERY_SMILES: "CC(=O)N[C@@H](CC(=O)O)C(=O)O"
  NUMERIC_RESULT: 1.03
- QUERY_SMILES: "N#Cc1ccc2c(c1)N(CCCN1CCC(O)CC1)c1ccccc1S2"
  NUMERIC_RESULT: 0.998

Q: Any idea what normalized growth was measured for Cc1cc(C)c(C(=O)NCCNc2ccc(C(F)(F)F)cc2[N+](=O)[O-])c(C)c1 ?
Result: 0.978

Q: Any idea what normalized growth was measured for O=c1n(CCCN2CCN(c3cccc(Cl)c3)CC2)nc2ccccn12 ?
Result: 0.979

---

# TEST_DESCRIPTION: chemical genetic growth profiling, strain panel (AID 1159580);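 note: tested at 20 µM; growth read once vehicle control cultures reached saturation at 30 °C; 1 = growth at the plate median or of vehicle wells; lower values mean less growth of the strain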
# CONDITION_DESCRIPTION: S. cerevisiae deletion strains, growth OD, locus YBR160W, strain CDC28, stronger effect = lower value
The whole screen tested about 5,500 compounds, of which about 2,000 (36%) were called active. Roughly 18% stayed inconclusive and do not appear here. This is one part of the list.
PARAMETER: normalized growth
Respond using a number only.

- QUERY_SMILES: "CC(=O)Oc1ccc2c(=O)c(Oc3ccc(Cl)cc3)c(C)oc2c1"
  normalized growth: 0.962

Q: Any idea what normalized growth was measured for Cc1oc(-c2ccc(Cl)cc2)cc1C(=O)N1CCN(c2ccc(C(F)(F)F)cn2)CC1 ?
Result: 0.969

Q: Any idea what normalized growth was measured for Nc1ccc(N2CCN(c3ccc(C(F)(F)F)cn3)CC2)nc1 ?
Result: 0.964

Q: Any idea what normalized growth was measured for CCCCCc1ccc(S(=O)(=O)Nc2ncc(C)cc2Br)cc1 ?
Result: 0.947

Q: Any idea what normalized growth was measured for O=C(c1ccc(Cl)cc1)N1CCN(c2ccc(C(F)(F)F)cn2)CC1 ?
Result: 0.973

Q: Any idea what normalized growth was measured for O=C1CSC(=Nc2cc(Cl)cc(Cl)c2)N1Cc1cccnc1 ?
Result: 0.992

---

# TEST_DESCRIPTION: chemical genetic growth profiling, strain panel (AID 1159580);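 note: tested at 20 µM; growth read once vehicle control cultures reached saturation at 30 °C; 1 = growth at the plate median or of vehicle wells; lower values mean less growth of the strain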
# CONDITION_DESCRIPTION: S. cerevisiae deletion strains, growth OD, locus YNL128W, strain TEP1
Out of some 5,500 compounds screened, about 2,000 (36%) were called active. Inconclusive results (about 18%) are left out. Rule as the data show it: active = normalized growth mostly below about 0.91 (no sharp cut-off); inconclusive = no clear call, values can overlap the other calls; inactive = mostly above about 0.92. Some of the results follow.
Choose one outcome from this list and give only that: active, inactive

Example cases with answers are listed next.
- COMPOUND: "CC(NC(=S)Nc1ccc(Oc2ccc(Cl)cc2)cc1)c1ccccc1 (centres undefined)"
  LABEL_CLASS: "inactive"
- COMPOUND: "CC(C)(C)c1ccc(C(=O)N/N=C\\c2cc(Cl)cc(Cl)c2O)cc1"
  LABEL_CLASS: "active"
- COMPOUND: "C/C=C(/C)C(=O)O[C@H]1C(C)=C2[C@H]([C@@H]1OC(=O)CCCCCCC)[C@@](C)(OC(C)=O)C[C@H](OC(=O)CCC)[C@@]1(O)[C@H]2OC(=O)[C@@]1(C)O"
  LABEL_CLASS: "inactive"
- COMPOUND: "CC(=O)O[C@@H]1CC2C(C)(C)C(=O)[C@@H]3O[C@@H]3[C@]2(C)C2CC[C@]3(C)C(=CC(=O)O[C@H]3c3ccoc3)[C@@]21C (some centres undefined)"
  LABEL_CLASS: "inactive"
- COMPOUND: "O=c1[nH]c2ccccc2n1C1CCN(CCCC(c2ccc(F)cc2)c2ccc(F)cc2)CC1"
  LABEL_CLASS: "inactive"
- COMPOUND: "Cn1c(=O)[nH]c(=O)c2[nH]cnc21"
  LABEL_CLASS: "inactive"

Q: Give the logged outcome of this assay for the following compound: NC1(C(=O)O)CCc2cc(C(=O)O)ccc21 (centres undefined)
Result: inactive

Q: Give the logged outcome of this assay for the following compound: S=C(NCc1ccco1)Nc1ccc(Oc2ccc(Cl)cc2)cc1
Result: active

Q: Give the logged outcome of this assay for the following compound: O=c1[nH]c2ccccc2n1CCCN1CCN(C(c2ccccc2)c2ccccc2)CC1
Result: active

---

# TEST_DESCRIPTION: chemical genetic growth profiling, strain panel (AID 1159580);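 note: tested at 20 µM; growth read once vehicle control cultures reached saturation at 30 °C; 1 = growth at the plate median or of vehicle wells; lower values mean less growth of the strain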
# CONDITION_DESCRIPTION: S. cerevisiae deletion strains, growth OD, locus YMR307W, strain GAS1
Screen size: about 5,500 compounds; about 2,000 (36%) were called active. Roughly 18% stayed inconclusive and do not appear here. Rule as the data show it: active = normalized growth mostly below about 0.91 (no sharp cut-off); inconclusive = no clear call, values can overlap the other calls; inactive = mostly above about 0.92. Some of the results follow.
Choose one outcome from this list and give only that: active, inactive

Example cases with answers are listed next.
- MOLECULE: "N#C/C(=N/Nc1ccc(C(F)(F)F)cc1)C(=O)C1CC1"
  LABEL_CLASS: "active"
- MOLECULE: "O=c1oc(Cl)c(Cl)c2ccccc12"
  LABEL_CLASS: "inactive"
- MOLECULE: "C=C(C)c1cc2cc(C(C)=O)c(O)cc2o1"
  LABEL_CLASS: "inactive"
- MOLECULE: "CC1(C)S[C@@H]2[C@H](NC(=O)COc3ccccc3)C(=O)N2[C@H]1C(=O)O"
  LABEL_CLASS: "inactive"
- MOLECULE: "O=C(O)c1cc2cc(Cl)ccc2[nH]1"
  LABEL_CLASS: "inactive"

Q: Give the logged outcome of this assay for the following molecule: CC(=O)Oc1ccc2c(c1)CCC1C2CC[C@@]2(C)C1CC[C@@H]2OC(C)=O (some centres not stated)
Result: inactive

Q: Give the logged outcome of this assay for the following molecule: CCCCC(=O)O[C@H]1CCC2C3CCc4cc(O)ccc4C3CC[C@@]21C (some centres not stated)
Result: inactive

Q: Give the logged outcome of this assay for the following molecule: CNCCNS(=O)(=O)c1cccc2cnccc12
Result: inactive

Q: Give the logged outcome of this assay for the following molecule: CSCCC(NC=O)C(=O)NC(CC(C)C)C(=O)NC(Cc1ccccc1)C(=O)O (configuration not stated)
Result: inactive

Q: Give the logged outcome of this assay for the following molecule: N#C/C(=C\c1ccc(O)cc1)C(=O)O
Result: inactive

Q: Give the logged outcome of this assay for the following molecule: C[C@]12CCC3c4ccc(O)cc4CCC3C1CC[C@@H]2OC(=O)CCC1CCCC1 (some centres not stated)
Result: inactive

Q: Give the logged outcome of this assay for the following molecule: N#CC(C#N)=CNc1cc(C(F)(F)F)ccc1N1CCCCC1
Result: inactive
